Protein target, amino acids: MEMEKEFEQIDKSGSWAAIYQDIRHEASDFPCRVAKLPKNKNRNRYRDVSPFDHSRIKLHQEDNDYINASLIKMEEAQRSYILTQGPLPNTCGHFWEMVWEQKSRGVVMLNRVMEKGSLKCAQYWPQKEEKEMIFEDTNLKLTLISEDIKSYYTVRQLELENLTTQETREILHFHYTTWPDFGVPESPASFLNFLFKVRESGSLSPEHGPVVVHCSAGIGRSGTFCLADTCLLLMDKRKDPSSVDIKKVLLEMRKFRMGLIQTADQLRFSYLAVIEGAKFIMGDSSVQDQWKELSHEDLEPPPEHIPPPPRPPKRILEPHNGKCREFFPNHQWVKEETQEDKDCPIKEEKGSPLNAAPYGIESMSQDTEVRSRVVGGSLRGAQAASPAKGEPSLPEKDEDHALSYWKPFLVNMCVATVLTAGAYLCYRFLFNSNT
OBSERVED PROPERTY: pIC50
Schema: pIC50 number; meaning minus log10 of the concentration expressed in molar units.

Input C[C@H](CCC(=O)O)[C@H]1CC[C@H]2[C@@H]3CC=C4C(C)(C)c5oncc5C[C@]4(C)[C@H]3CC[C@]12C . Output pIC50: 5.04

# pIC50 of C[C@H](CCC(=O)O)[C@H]1CC[C@H]2[C@@H]3CC=C4C(C)(C)c5[nH]ncc5C[C@]4(C)[C@H]3CC[C@]12C = 5.39

Record C[C@H](CCC(=O)O)[C@H]1CC[C@H]2[C@@H]3CC=C4C(C)(C)c5nccnc5C[C@]4(C)[C@H]3CC[C@]12C . Reported pIC50: 5.06
